Give shrunken log2 fold change for every item shown.
System: Escherichia coli TOP10;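 also: peptides expressed intracellularly from a pBAD plasmid library in pooled LB shake-flask culture, induced with 0.3% L-arabinose, DNA abundance read by NGS, three biological replicates, DESeq2 with apeglm shrinkage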
Assay: shrunken log2 fold change of peptide-encoding DNA abundance (4.5 h post-induction vs induction); higher = less antimicrobial activity (less host growth inhibition)
Settings: time post-induction: 4.5 h; library: site-saturation at positions 5, 18, 19, 20
Answers are plain numbers.

> print(dat)
                   residues             target.desc                   property  measured
 1  RRIRERPPRLPRPRPRPECHPRP  Escherichia coli TOP10  shrunken log2 fold change    0.0213
 2  RRIRARPPRLPRPRPRPDLLPRP  Escherichia coli TOP10  shrunken log2 fold change    0.0805
 3  RRIRTRPPRLPRPRPRPERRPRP  Escherichia coli TOP10  shrunken log2 fold change    0.0791
 4  RRIRPRPPRLPRPRPRPKKVPRP  Escherichia coli TOP10  shrunken log2 fold change    0.0308
 5  RRIRLRPPRLPRPRPRPMKIPRP  Escherichia coli TOP10  shrunken log2 fold change    -0.028
 6  RRIRIRPPRLPRPRPRPNKKPRP  Escherichia coli TOP10  shrunken log2 fold change   -0.0918
 7  RRIRWRPPRLPRPRPRPIYVPRP  Escherichia coli TOP10  shrunken log2 fold change   -0.0477
 8  RRIRLRPPRLPRPRPRPTITPRP  Escherichia coli TOP10  shrunken log2 fold change   -0.0781
 9  RRIRDRPPRLPRPRPRPVECPRP  Escherichia coli TOP10  shrunken log2 fold change     0.018
10  RRIRWRPPRLPRPRPRPYSRPRP  Escherichia coli TOP10  shrunken log2 fold change   -0.0788

For each of the sequences below, note its shrunken log2 fold change.
1. RRIRDRPPRLPRPRPRPKCDPRP
2. RRIRWRPPRLPRPRPRPPKNPRP
3. RRIRYRPPRLPRPRPRPIDQPRP
4. RRIRHRPPRLPRPRPRPLAEPRP
5. RRIRDRPPRLPRPRPRPPFIPRP

[0.0437, 0.757, -0.0356, 0.243, -0.533]
